Listed here: items and their measured log10 of IC50.
Biological target: 11βHSD1 (Homo sapiens, UniProt P28845)
Construct: microsome fraction
Sequence (P28845 whole entry): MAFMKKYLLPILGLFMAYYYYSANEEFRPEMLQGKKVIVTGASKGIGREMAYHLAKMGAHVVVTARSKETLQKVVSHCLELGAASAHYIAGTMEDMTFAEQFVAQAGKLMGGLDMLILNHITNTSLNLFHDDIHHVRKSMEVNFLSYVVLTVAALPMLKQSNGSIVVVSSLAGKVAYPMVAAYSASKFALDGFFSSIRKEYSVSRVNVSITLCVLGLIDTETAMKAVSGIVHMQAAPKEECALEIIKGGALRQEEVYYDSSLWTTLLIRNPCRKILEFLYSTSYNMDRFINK
Experiment: Determination of 11βHSD1 inhibitory activity (microsome fraction, cortisone to cortisole, competitive ELISA)
Details: microsome fraction of Reference Example 2a; 500 nM cortisone, 400 μM NADPH substrate solution; room temperature 60 min
Protocol: The enzyme reaction was performed in a polypropylene 96-well plate (Corning). The microsome fraction obtained in Reference Example 2a was diluted with a buffer (30 mM Tris-HCl, 1 mM EDTA, 0.1% BSA, pH 7.2) to a concentration of 100 μg/ml. A solution (2.5 μl) of the test compound in dimethyl sulfoxide was added to the obtained diluted solution (22.5 μl) and the mixture was incubated at room temperature for 5 min. […] The produced cortisole was quantified by the following competitive ELISA. […]
measured-attribute: log10 of IC50 (log10 of the value in nM)

compound | readout-value
COc1ccccc1CC1CCN(C2CCc3ccccc32)C1=O (single isomer, unassigned) [Example 66A] | 1.75
O=C1N(Cc2ccc(C(F)(F)F)cc2)CCN1c1ccc(CC2CCN(C3C4CC5CC3CC(O)(C5)C4)C2=O)c(Cl)c1 (centres unmarked) [Example 510A] | 1.00
Cc1ccccc1CN1C(=O)N(Cc2c(Cl)cccc2Cl)CC1(C)O (centres unmarked) [Example 32B] | 1.72
CC1(O)CCC(N2CCC(Cc3ccc(Cl)cc3Cl)C2=O)CC1 (single isomer, unassigned) [Example 413A] | 1.46
CC1(O)CCC(N2CCC(Cc3c(Cl)cccc3Cl)C2=O)CC1 (single isomer, unassigned) [Example 38A] | 1.41
CC1(O)CCC(N2CCC(Cc3ccc(Cl)cc3Cl)C2=O)CC1 (single isomer, unassigned) [Example 412A] | 2.63
Cc1ccccc1CN1CCCC(Cc2c(Cl)cccc2Cl)C1=O (centres unmarked) | 2.04
O=C1C(Cc2c(Cl)cccc2Cl)CCN1C1CCCCC1 (centres unmarked) | 0.90
